Values were extracted from patent US20210145802A1.

TEST TARGET: Aβ42 (Homo sapiens, UniProt P05067)
Construct: […]; made in house; host or cells: E. coli BL21 Gold (DE3)
Sequence (P05067 671-713): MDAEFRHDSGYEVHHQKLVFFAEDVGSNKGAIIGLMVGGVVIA
ASSAY: ThT kinetic assay of Aβ42 fibril formation (unseeded)
Assay type: biochemical
COND: 2 μM Aβ42; 5× drug:protein concentration
MEASURED PROPERTY: delay of Aβ42 aggregation

# returns recorded delay of Aβ42 aggregation (system: Aβ42 (Homo sapiens, UniProt P05067)) for Cn1c(COc2ccc(CC3SC(=O)NC3=O)cc2)nc2ccccc2c1=O (stereo not shown) [Balaglitazone]
little to no delay

# returns recorded delay of Aβ42 aggregation (system: Aβ42 (Homo sapiens, UniProt P05067)) for COc1ccc2nc(COc3ccc(CC4SC(=O)NC4=O)cc3)n(C)c2c1 (stereo not shown) [Rivoglitazone]
little to no delay

# returns recorded delay of Aβ42 aggregation (system: Aβ42 (Homo sapiens, UniProt P05067)) for CCc1ccc(C(=O)COc2ccc(CC3SC(=O)NC3=O)cc2)nc1 (stereo not shown) [Mitoglitazone]
little to no delay
